Biological target: F508delCFTR cell surface expression in CFBE41o-F508delCFTR-HRP cells (Homo sapiens, UniProt P13569, DEL508-508)
Construct: fused on or other part: Horseradish peroxidase (HRP) reporter inserted in the fourth exofacial (extracellular) loop of CFTR; expression is doxycycline-inducible
Sequence (P13569 with tags, fused parts or gaps DEL508-508 limits assumed): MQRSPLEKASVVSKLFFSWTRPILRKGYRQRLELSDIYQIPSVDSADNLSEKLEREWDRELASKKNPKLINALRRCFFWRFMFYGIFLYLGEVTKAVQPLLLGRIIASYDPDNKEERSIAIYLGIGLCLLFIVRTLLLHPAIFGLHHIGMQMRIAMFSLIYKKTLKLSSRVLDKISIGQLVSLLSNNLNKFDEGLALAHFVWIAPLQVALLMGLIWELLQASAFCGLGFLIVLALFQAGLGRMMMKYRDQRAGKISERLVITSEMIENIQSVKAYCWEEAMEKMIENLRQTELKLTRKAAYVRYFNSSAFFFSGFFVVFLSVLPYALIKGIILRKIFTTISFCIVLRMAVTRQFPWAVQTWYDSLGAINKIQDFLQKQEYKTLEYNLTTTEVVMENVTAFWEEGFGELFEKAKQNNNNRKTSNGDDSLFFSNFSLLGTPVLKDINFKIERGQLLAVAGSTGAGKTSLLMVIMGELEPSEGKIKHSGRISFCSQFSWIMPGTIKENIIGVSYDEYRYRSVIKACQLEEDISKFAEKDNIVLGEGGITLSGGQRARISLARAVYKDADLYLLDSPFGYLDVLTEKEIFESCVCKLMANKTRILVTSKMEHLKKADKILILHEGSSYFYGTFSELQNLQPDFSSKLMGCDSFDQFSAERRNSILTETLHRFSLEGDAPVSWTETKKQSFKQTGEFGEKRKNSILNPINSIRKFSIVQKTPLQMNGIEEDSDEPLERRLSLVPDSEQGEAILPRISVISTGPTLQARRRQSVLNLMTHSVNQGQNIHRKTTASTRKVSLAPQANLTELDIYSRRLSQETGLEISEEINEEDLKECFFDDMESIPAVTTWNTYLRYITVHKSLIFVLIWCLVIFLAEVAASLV
Sequence (P13569 919-1480 limits assumed, stated change not applied): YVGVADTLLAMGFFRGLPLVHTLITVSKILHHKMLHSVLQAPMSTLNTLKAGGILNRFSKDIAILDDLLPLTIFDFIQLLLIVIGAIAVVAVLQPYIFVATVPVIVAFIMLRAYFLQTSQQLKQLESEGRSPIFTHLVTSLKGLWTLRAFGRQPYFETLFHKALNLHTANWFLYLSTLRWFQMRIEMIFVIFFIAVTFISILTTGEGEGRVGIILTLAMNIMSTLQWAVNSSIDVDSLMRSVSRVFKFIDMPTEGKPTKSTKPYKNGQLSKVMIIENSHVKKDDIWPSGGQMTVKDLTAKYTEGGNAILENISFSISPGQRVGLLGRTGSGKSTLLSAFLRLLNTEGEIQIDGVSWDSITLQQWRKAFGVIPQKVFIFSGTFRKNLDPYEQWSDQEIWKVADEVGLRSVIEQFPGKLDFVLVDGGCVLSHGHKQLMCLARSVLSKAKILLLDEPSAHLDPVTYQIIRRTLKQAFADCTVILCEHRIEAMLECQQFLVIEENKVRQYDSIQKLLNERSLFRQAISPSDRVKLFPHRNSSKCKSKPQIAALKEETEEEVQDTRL
Test: Cell Surface Expression-Horse Radish Peroxidase (CSE-HRP) Assay
Settings: CFBE41o-F508delCFTR-HRP cells, 18-24 hours at 33° C., 8-point curve, highest concentration 20 μM
Procedure: Cell Surface Expression-Horse Radish Peroxidase (CSE-HRP) Assay: A cellular assay for measuring the F508delCFTR cell surface expression after correction with test compounds was developed in human lung derived epithelial cell line (CFBE41o-) (Veit G et al, (2012) Mol Biol Cell. 23(21): 4188-4202). […] The raw counts from the experiment are analyzed using Accelrys® Assay Explorer v3.3. […]
OUTCOME_MEASURE: EC50 (µM)
Numeric answer only, unit µM assumed.

Write down EC50 measured for item `CCOC(=O)[C@H]1CC[C@H]([C@@H]2C[C@H](NC(=O)[C@@]3(C)COc4cc5c(cc43)OC(F)(F)O5)c3ccc(OC(F)(F)F)cc3O2)CC1`
2.24

Write down EC50 measured for item `Cc1ccc(-c2cccc(C(=O)O)c2)nc1NC(=O)[C@@]1(C)COc2cc3c(cc21)OC(F)(F)O3`
7.51

Write down EC50 measured for item `COc1ccc2c(c1)O[C@H](COCc1ccccc1)C[C@@H]2NC(=O)[C@@]1(C)COc2cc3c(cc21)OC(F)(F)O3`
1.54

Write down EC50 measured for item `C[C@]1(C(=O)Nc2cccc(N3CC[C@@H](C(=O)O)C3)n2)COc2cc3c(cc21)OC(F)(F)O3`
1.03

Write down EC50 measured for item Cc1ccc(NC(=O)[C@]2(C)CCc3c2ccc2c3OCO2)cc1-c1cccc(C(=O)O)c1 (single isomer, unassigned)
0.73

Write down EC50 measured for item `COc1ccc2c(c1)O[C@@H](c1ccc(C(=O)N3CCC(F)(F)CC3)cn1)C[C@H]2NC(=O)[C@@]1(C)COc2cc3c(cc21)OC(F)(F)O3`
0.01

----------
Target: F508delCFTR cell surface expression in CFBE41o-F508delCFTR-HRP cells (Homo sapiens, UniProt P13569, DEL508-508)
Construct: fused on or other part: Horseradish peroxidase (HRP) reporter inserted in the fourth exofacial (extracellular) loop of CFTR; expression is doxycycline-inducible
Assay: Cell Surface Expression-Horse Radish Peroxidase (CSE-HRP) Assay
Details: CFBE41o-F508delCFTR-HRP cells, 18-24 hours at 33° C., 8-point curve, highest concentration 20 μM
pEC50: −log10 of the molar value.
Classification field: Yes = pEC50 at or over 6; No = pEC50 under 6.

Field: example entries. Status: answers known.
| COMPOUND | ANSWER_LABEL |
| --- | --- |
| C[C@]1(C(=O)N[C@H]2C[C@@H]([C@H]3CC[C@@H](C(=O)O)CC3)Oc3cc(OC(F)(F)F)ccc32)COc2cc3c(cc21)OC(F)(F)O3 [Example 161] | No |
| CC(C)(C)c1cc2cc(NC(=O)[C@@]3(C)COc4cc5c(cc43)OC(F)(F)O5)c(F)cc2n1C[C@@H](O)COCc1ccccc1 [Example 132] | Yes |
| COc1ccc2c(c1)O[C@@H](c1ccc(C(=O)O)cc1)C[C@H]2NC(=O)C1(C)COc2cc3c(cc21)OC(F)(F)O3 (stereo partly shown) [Example 16] | Yes |

Identify whether the reported pEC50 of the following compound is 6 or greater: COC(=O)c1ccc(-c2cccc(NC(=O)C3(C)COc4cc5c(cc43)OC(F)(F)O5)c2)cc1 (stereo not shown) [Example 66]
No

Identify whether the reported pEC50 of the following compound is 6 or greater: C[C@]1(C(=O)N[C@@H]2C[C@H](c3ccc(C(=O)O)cn3)Oc3cc(OC(F)(F)F)ccc32)COc2cc3c(cc21)OC(F)(F)O3 [Example 145]
Yes

----------
Target: F508delCFTR in primary hBE cells with F508del/F508del CFTR mutation (Homo sapiens, UniProt P13569, DEL508-508)
Construct: cells isolated from CF patients with the homozygous mutation; endogenous in cells
Sequence (P13569 with tags, fused parts or gaps DEL508-508): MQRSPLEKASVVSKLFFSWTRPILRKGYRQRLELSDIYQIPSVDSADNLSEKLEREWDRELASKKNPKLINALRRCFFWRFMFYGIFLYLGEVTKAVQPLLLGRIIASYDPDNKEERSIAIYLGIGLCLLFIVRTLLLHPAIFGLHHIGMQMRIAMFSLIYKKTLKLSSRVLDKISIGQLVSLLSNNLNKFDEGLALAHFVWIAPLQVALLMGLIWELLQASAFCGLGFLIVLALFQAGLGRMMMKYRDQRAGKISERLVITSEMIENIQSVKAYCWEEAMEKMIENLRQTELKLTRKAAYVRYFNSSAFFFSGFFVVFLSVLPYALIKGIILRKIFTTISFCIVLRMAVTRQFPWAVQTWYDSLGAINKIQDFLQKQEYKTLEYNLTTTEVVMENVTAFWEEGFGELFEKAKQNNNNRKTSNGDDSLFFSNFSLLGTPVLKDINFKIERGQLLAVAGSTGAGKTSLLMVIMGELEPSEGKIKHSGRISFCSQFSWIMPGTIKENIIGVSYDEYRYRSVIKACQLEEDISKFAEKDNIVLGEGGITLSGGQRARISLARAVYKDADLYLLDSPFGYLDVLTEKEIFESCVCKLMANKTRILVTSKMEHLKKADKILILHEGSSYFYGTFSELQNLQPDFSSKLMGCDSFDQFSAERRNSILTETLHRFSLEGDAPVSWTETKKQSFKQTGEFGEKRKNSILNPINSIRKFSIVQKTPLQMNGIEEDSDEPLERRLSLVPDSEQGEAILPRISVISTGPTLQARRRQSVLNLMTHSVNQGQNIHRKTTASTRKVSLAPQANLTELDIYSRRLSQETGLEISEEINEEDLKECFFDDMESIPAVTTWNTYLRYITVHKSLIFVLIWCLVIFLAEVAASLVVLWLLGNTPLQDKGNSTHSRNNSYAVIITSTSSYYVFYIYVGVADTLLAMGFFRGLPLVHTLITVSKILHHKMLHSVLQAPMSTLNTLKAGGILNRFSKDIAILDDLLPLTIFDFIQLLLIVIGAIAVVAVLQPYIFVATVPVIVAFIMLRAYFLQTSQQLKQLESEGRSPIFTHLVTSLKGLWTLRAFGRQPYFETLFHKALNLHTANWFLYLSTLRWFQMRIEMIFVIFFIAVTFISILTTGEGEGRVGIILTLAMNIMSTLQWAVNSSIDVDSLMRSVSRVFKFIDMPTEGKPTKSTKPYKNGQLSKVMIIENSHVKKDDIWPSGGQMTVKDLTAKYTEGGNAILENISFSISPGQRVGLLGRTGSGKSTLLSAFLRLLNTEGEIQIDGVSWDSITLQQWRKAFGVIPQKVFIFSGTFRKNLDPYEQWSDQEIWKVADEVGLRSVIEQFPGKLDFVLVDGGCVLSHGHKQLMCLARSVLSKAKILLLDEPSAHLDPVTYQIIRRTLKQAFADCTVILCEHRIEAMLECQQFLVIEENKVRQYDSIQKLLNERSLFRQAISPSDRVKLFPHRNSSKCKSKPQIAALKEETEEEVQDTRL
Experiment: Transepithelial Clamp Circuit on Human Bronchial Epithelial Cells Conductance Assay (hBE-TECC)
Details: primary hBE cells F508del/F508del, 18-24 hours at 37° C., equivalent short circuit current, 6 concentrations
A collection of molecules and their measured EC50
Numeric answer only, unit nM assumed.

| MOLECULE | OUTCOME_MEASURE | UNIT_TEXT | MEASURED_NUMBER |
| --- | --- | --- | --- |
| COc1ccc2c(c1)O[C@@H]([C@H]1CC[C@H](C(=O)N3C[C@H](O)[C@@H](O)C3)CC1)C[C@H]2NC(=O)[C@@]1(C)COc2cc3c(cc21)OC(F)(F)O3 | EC50 | nM | 117 |

Write down EC50 measured for item C[C@]1(C(=O)N[C@@H]2C[C@H]([C@H]3CC[C@H](C(=O)NCC(O)CO)CC3)Oc3cc(OC(F)(F)F)ccc32)COc2cc3c(cc21)OC(F)(F)O3 (stereo partly drawn)
69

----------
Molecular target: F508delCFTR cell surface expression in CFBE41o-F508delCFTR-HRP cells (Homo sapiens, UniProt P13569, DEL508-508)
Construct: fused on or other part: Horseradish peroxidase (HRP) reporter inserted in the fourth exofacial (extracellular) loop of CFTR; expression is doxycycline-inducible
Assay: Cell Surface Expression-Horse Radish Peroxidase (CSE-HRP) Assay
Conditions: CFBE41o-F508delCFTR-HRP cells, 18-24 hours at 33° C., 8-point curve, highest concentration 20 μM
OUTCOME_MEASURE: EC50 (nM)
Numeric answer only, unit nM assumed.

Would you please look over these solved cases?
| COMPOUND_STRUCTURE | OUTCOME_MEASURE | UNIT_TEXT | MEASURED_NUMBER |
| --- | --- | --- | --- |
| COc1ccc2c(c1)O[C@@H](c1cccc(C(=O)O)c1)C[C@H]2NC(=O)[C@@]1(C)COc2cc3c(cc21)OC(F)(F)O3 | EC50 | nM | 380 |
| C[C@]1(C(=O)N[C@@H]2C[C@H](c3ccc(C(=O)O)cc3)Oc3ccccc32)COc2cc3c(cc21)OC(F)(F)O3 | EC50 | nM | 180 |
| COc1ccc2c(c1)O[C@@H](c1ccc(C(=O)NCCO)cn1)C[C@H]2NC(=O)[C@@]1(C)COc2cc3c(cc21)OC(F)(F)O3 | EC50 | nM | 30 |
| COc1ccc2c(c1)O[C@@H](c1ccc(C(=O)O)cn1)C[C@H]2NC(=O)[C@@]1(C)COc2cc3c(cc21)OC(F)(F)O3 | EC50 | nM | 10 |

Then this compound:
Write down EC50 measured for item `COc1ccc2c(c1)O[C@@H](c1ccc(C(=O)O)cc1)C[C@H]2NC(=O)[C@]1(C)CCc2c1ccc1c2OCO1`
430

----------
A collection of compounds and their measured EC50
Biological target: F508delCFTR cell surface expression in CFBE41o-F508delCFTR-HRP cells (Homo sapiens, UniProt P13569, DEL508-508)
Construct: fused on or other part: Horseradish peroxidase (HRP) reporter inserted in the fourth exofacial (extracellular) loop of CFTR; expression is doxycycline-inducible
Test: Cell Surface Expression-Horse Radish Peroxidase (CSE-HRP) Assay
Details: CFBE41o-F508delCFTR-HRP cells, 18-24 hours at 33° C., 8-point curve, highest concentration 20 μM
Numeric answer only, unit nM assumed.

| COMPOUND | EC50 / nM |
| --- | --- |
| COC(=O)c1cccc(-n2nc(C3CC3)cc(NC(=O)[C@@]3(C)COc4cc5c(cc43)OC(F)(F)O5)c2=O)c1 | 1420 |
| CC1(C(=O)Nc2nc(-c3ccc(C#N)cc3)cs2)COc2cc3c(cc21)OC(F)(F)O3 (stereo not drawn) | 8640 |

Write down EC50 measured for item CC(CO)NC(=O)[C@H]1CC[C@H]([C@H]2C[C@@H](NC(=O)[C@@]3(C)COc4cc5c(cc43)OC(F)(F)O5)c3ccc(OC(F)(F)F)cc3O2)CC1 (stereo partly drawn)
80

----------
Target: F508delCFTR cell surface expression in CFBE41o-F508delCFTR-HRP cells (Homo sapiens, UniProt P13569, DEL508-508)
Construct: fused on or other part: Horseradish peroxidase (HRP) reporter inserted in the fourth exofacial (extracellular) loop of CFTR; expression is doxycycline-inducible
Test: Cell Surface Expression-Horse Radish Peroxidase (CSE-HRP) Assay
Assay type: cell-based
Settings: CFBE41o-F508delCFTR-HRP cells, 18-24 hours at 33° C., 8-point curve, highest concentration 20 μM
Entries whose EC50 is below 1 µM take yes; entries at or above 1 µM take no.

Field: example entries. Status: answers known.
| COMPOUND | ANSWER_LABEL |
| --- | --- |
| CC(C)(CO)NC(=O)[C@H]1CC[C@H]([C@H]2C[C@@H](NC(=O)[C@@]3(C)COc4cc5c(cc43)OC(F)(F)O5)c3ccc(OC(F)(F)F)cc3O2)CC1 [Example 268] | yes |
| C[C@]1(C(=O)N[C@@H]2C[C@H](c3ccc(C(=O)O)cn3)Oc3cc(OC(F)F)ccc32)COc2cc3c(cc21)OC(F)(F)O3 [Example 151] | yes |
| C[C@]1(C(=O)N[C@@H]2C[C@H](C3CCC(CO)(C(=O)O)CC3)Oc3cc(OC(F)(F)F)ccc32)COc2cc3c(cc21)OC(F)(F)O3 (stereo partly drawn) [Example 288] | yes |
| C[C@]1(C(=O)N[C@@H]2C[C@H]([C@H]3CC[C@H](C(=O)N(CCO)CCO)CC3)Oc3cc(OC(F)(F)F)ccc32)COc2cc3c(cc21)OC(F)(F)O3 [Example 254] | yes |
| COC(=O)c1ccc([C@H]2C[C@@H](NC(=O)[C@@]3(C)COc4cc5c(cc43)OC(F)(F)O5)c3ccc(OC)cc3O2)nc1 [Example 89E] | yes |
| COc1ccc2c(c1)O[C@@H](c1ccc(Br)nc1)C[C@H]2NC(=O)[C@@]1(C)COc2cc3c(cc21)OC(F)(F)O3 [Example 176] | yes |

Dear reviewer, please state whether CC(C)(O)CNC(=O)[C@H]1CC[C@H]([C@H]2C[C@@H](NC(=O)[C@@]3(C)COc4cc5c(cc43)OC(F)(F)O5)c3ccc(OC(F)(F)F)cc3O2)CC1 [Example 267] has EC50 strictly beneath 1 µM.
yes

Dear reviewer, please state whether COc1ccc2c(c1)O[C@@H](c1ccc(=O)[nH]n1)C[C@H]2NC(=O)[C@@]1(C)COc2cc3c(cc21)OC(F)(F)O3 [Example 197] has EC50 strictly beneath 1 µM.
yes

Dear reviewer, please state whether COc1ccc2c(c1)O[C@@H](c1ccc(C(=O)NC3CCS(=O)(=O)CC3)cn1)C[C@H]2NC(=O)[C@@]1(C)COc2cc3c(cc21)OC(F)(F)O3 [Example 217] has EC50 strictly beneath 1 µM.
yes

Dear reviewer, please state whether COC(=O)[C@@H]1CCN(c2cccc(NC(=O)C3(C)COc4cc5c(cc43)OC(F)(F)O5)n2)C1 (stereo partly drawn) [Example 7] has EC50 strictly beneath 1 µM.
no

Dear reviewer, please state whether C[C@]1(C(=O)N[C@@H]2C[C@H]([C@H]3CC[C@H](C(=O)O)CC3)Oc3cc(OC(F)F)ccc32)COc2cc3c(cc21)OC(F)(F)O3 [Example 160] has EC50 strictly beneath 1 µM.
yes

Dear reviewer, please state whether CC(C)CN1CC2CN(c3cccc(NC(=O)C4(C)COc5cc6c(cc54)OC(F)(F)O6)n3)CC2C1 (stereo not drawn) [Example 108] has EC50 strictly beneath 1 µM.
no

Dear reviewer, please state whether COc1ccc2c(c1)O[C@@H]([C@H]1CC[C@H](C(=O)N3C[C@H](O)[C@@H](O)C3)CC1)C[C@H]2NC(=O)[C@@]1(C)COc2cc3c(cc21)OC(F)(F)O3 [Example 281] has EC50 strictly beneath 1 µM.
yes

Dear reviewer, please state whether CC1(C)OC[C@H]([C@@H](O)Cn2nc(-c3ccccc3)cc(NC(=O)[C@@]3(C)COc4cc5c(cc43)OC(F)(F)O5)c2=O)O1 [Example 104] has EC50 strictly beneath 1 µM.
no

Dear reviewer, please state whether CC1(C)OC[C@@H](Cn2c3c(c4cc(NC(=O)[C@@]5(C)COc6cc7c(cc65)OC(F)(F)O7)c(F)cc42)C(C)(C)OCC3(C)C)O1 [Example 207] has EC50 strictly beneath 1 µM.
yes

Dear reviewer, please state whether Cc1ccc(NC(=O)[C@@]2(C)COc3cc4c(cc32)OC(F)(F)O4)nc1-c1ccc(C(=O)O)cc1 [Example 83] has EC50 strictly beneath 1 µM.
yes

Dear reviewer, please state whether C[C@]1(C(=O)Nc2cc3cc(C4(COCc5ccccc5)CC4)n(C[C@@H](O)CO)c3cc2F)COc2cc3c(cc21)OC(F)(F)O3 [Example 203] has EC50 strictly beneath 1 µM.
yes

Dear reviewer, please state whether C[C@]1(C(=O)N[C@@H]2C[C@H](C3CCN(C[C@H](O)CO)CC3)Oc3cc(OC(F)(F)F)ccc32)COc2cc3c(cc21)OC(F)(F)O3 [Example 189] has EC50 strictly beneath 1 µM.
no

Dear reviewer, please state whether C[C@]1(C(=O)Nc2ccc(N3CCC(O)C3)nc2)COc2cc3c(cc21)OC(F)(F)O3 (stereo partly drawn) [Example 72] has EC50 strictly beneath 1 µM.
no

Dear reviewer, please state whether Cc1ccc(NC(=O)[C@@]2(C)COc3cc4c(cc32)OC(F)(F)O4)nc1Cl [Example 77] has EC50 strictly beneath 1 µM.
no

Dear reviewer, please state whether CC1(C)OC[C@H](CN2CCC([C@H]3C[C@@H](NC(=O)[C@@]4(C)COc5cc6c(cc54)OC(F)(F)O6)c4ccc(OC(F)(F)F)cc4O3)CC2)O1 [Example 247] has EC50 strictly beneath 1 µM.
no

Dear reviewer, please state whether C[C@]1(C(=O)N[C@H]2C[C@@H](C3CCN(C(=O)OCc4ccccc4)CC3)Oc3cc(OC(F)(F)F)ccc32)COc2cc3c(cc21)OC(F)(F)O3 [Example 225] has EC50 strictly beneath 1 µM.
no

Dear reviewer, please state whether C[C@]1(C(=O)N[C@H]2C[C@@H](C3CCN(C[C@H](O)CO)CC3)Oc3cc(OC(F)(F)F)ccc32)COc2cc3c(cc21)OC(F)(F)O3 [Example 188] has EC50 strictly beneath 1 µM.
no
